- Assayed system: D(2) dopamine receptor (Homo sapiens) (UniProt P14416)
- Sequence (P14416 whole entry, looked up): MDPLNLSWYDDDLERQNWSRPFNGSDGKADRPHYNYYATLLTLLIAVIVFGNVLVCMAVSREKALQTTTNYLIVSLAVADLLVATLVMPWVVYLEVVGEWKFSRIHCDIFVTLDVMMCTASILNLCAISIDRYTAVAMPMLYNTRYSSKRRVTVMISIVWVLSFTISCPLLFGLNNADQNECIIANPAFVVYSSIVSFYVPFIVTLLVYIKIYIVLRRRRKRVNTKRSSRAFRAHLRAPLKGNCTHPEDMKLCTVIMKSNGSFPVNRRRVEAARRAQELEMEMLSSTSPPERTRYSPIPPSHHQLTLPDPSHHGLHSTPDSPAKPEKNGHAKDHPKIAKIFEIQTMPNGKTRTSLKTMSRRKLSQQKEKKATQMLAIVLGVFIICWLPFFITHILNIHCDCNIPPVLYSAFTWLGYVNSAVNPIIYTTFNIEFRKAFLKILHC
- Assay summary: HTS Assay for Allosteric Agonists of the Human D2 Dopamine Receptor: Primary Screen for Agonists; further: 0% is about no effect
- Study conditions: HEK293 T-REx D2 cells, calcium flux agonist mode; at 2 µM
About 1,800 (0.53%) of roughly 340,000 compounds were called active.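 How the source made its calls: active means activation over 3 SD above normal in the single-dose calcium agonist read (cut at about 30% in these data); inactive means the rest.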 This excerpt belongs to a sample that is enriched for actives.
Possible outcomes: active, inactive

Molecule | Group label
CCc1ccccc1NC(=O)Cc1ccc(NC(=O)N2CCCCc3ccccc32)cc1 | inactive
O=C(c1cc2ccccc2o1)N1CCN(Cc2ccccc2)CC1 | inactive
COc1ccc(-n2c(=O)c3sc4ccccc4c3n(CC(=O)Nc3cccc(C)c3)c2=O)cc1 | inactive
CC1=CC2=NC(=O)/C(=C/c3coc4ccccc4c3=O)C(=N)N2O1 | active
CCc1ccccc1NC(=O)c1ccc(F)c(S(=O)(=O)NC2CCCCCC2)c1 | inactive
COc1cc(OC)c(NC(=O)c2cc(S(=O)(=O)N3CCCC3)cn2C)cc1Cl | inactive
Cc1onc(C(=O)NN)c1-c1csc(COc2ccccc2)n1 | inactive
COc1ccc(CCC(=O)NCc2ccc3c(c2)CCN3C(=O)c2ccc(F)cc2)cc1 | inactive
CC(C)(C)C(=O)OCc1nc(-c2ccc(O)c(O)c2)cs1 | active
COc1cccc(NC(=O)C2CCCN(c3ncnc4c3nc3n4CCCCC3)C2)c1 (stereo not given) | active

###

- Assayed system: D(2) dopamine receptor (Homo sapiens)
- Assay summary: HTS Assay for Allosteric Agonists of the Human D2 Dopamine Receptor: Primary Screen for Agonists; further: 0% is about no effect
- Study conditions: HEK293 T-REx D2 cells, calcium flux agonist mode; at 2 µM; active compounds read high
Hit rate of the full screen: of about 340,000 compounds, about 1,800 (0.53%) were called active. Only a selection was taken, and actives are over-represented in it overall.
Reported activation values for a set of compounds

Compound | Assayed system | activation [%]
Cc1ccccc1C(=O)Nc1cc(C)c(O)c(-c2nc3ccccc3o2)c1 | D(2) dopamine receptor (Homo sapiens) | -0.387
CCOc1ccc(CNC(=O)c2ccc(CS(=O)c3ccccc3)o2)cc1 (stereo unspecified) | D(2) dopamine receptor (Homo sapiens) | -0.363
Cc1cc(OC(C)C(=O)Nc2sc3c(c2C(N)=O)CCCC3)ccc1Cl (stereo unspecified) | D(2) dopamine receptor (Homo sapiens) | -0.192
O=C(CSC1CC(=O)N(CCc2ccccc2)C1=O)Nc1ccc(Cl)cc1 (stereo unspecified) | D(2) dopamine receptor (Homo sapiens) | 49.2
COc1ccccc1CN1CCC(CNC(=O)c2cnn(-c3cccc(Cl)c3)c2C2CCN(C(=O)OC(C)(C)C)CC2)CC1 | D(2) dopamine receptor (Homo sapiens) | 1.52
Cc1cc(C)cc(NC(=O)Cn2nc(N3CCN(c4ccccc4)CC3)ccc2=O)c1 | D(2) dopamine receptor (Homo sapiens) | 0.0127
CCOc1ccc(/C=C(\C#N)c2nc3ccccc3c(=O)[nH]2)cc1OC | D(2) dopamine receptor (Homo sapiens) | -1.7
CCOc1ccc(NC(=O)Cn2cc(C(=O)c3ccc(C)cc3)c(=O)c3cc4c(cc32)OCCO4)cc1 | D(2) dopamine receptor (Homo sapiens) | -0.524
Cc1ccc(O)c(-c2cc(C(=O)NCc3ccccc3)[nH]n2)c1 | D(2) dopamine receptor (Homo sapiens) | 0.766
CCc1ccc2oc(-c3ccc(NC(=O)c4cc5ccccc5o4)cc3)nc2c1 | D(2) dopamine receptor (Homo sapiens) | 0.271
CCOC(=O)C(Cc1ccccc1)NC(=O)CCc1c(C)nc2c(c(C)nn2-c2ccc(C)c(C)c2)c1C (stereo unspecified) | D(2) dopamine receptor (Homo sapiens) | 3.29
N#C/C(=C/c1ccc(N2CCOCC2)o1)C(=O)N1CCOCC1 | D(2) dopamine receptor (Homo sapiens) | 7.75
CCOC(=O)c1c(C)[nH]c(C)c1S(=O)(=O)NCC(=O)NCc1cccc(C)c1 | D(2) dopamine receptor (Homo sapiens) | 0.112
Cc1ccc(-n2c(=O)c3cccnc3n2CC(=O)NCc2ccc(F)cc2)cc1C | D(2) dopamine receptor (Homo sapiens) | 0.0353
O=C(Cn1cc(SCc2ccccc2)c2ccccc21)N1CCCCC1 | D(2) dopamine receptor (Homo sapiens) | 0.397
COc1cccc(NC(=O)N(Cc2cn(C)c3ccccc23)C2CCCCCC2)c1 | D(2) dopamine receptor (Homo sapiens) | 0.628
O=C(NCCCc1ccccc1)C1CCC(=O)N(CCc2ccc(Cl)cc2)C1 (stereo unspecified) | D(2) dopamine receptor (Homo sapiens) | -1.17
CCOc1cc(/C=C(\C#N)c2nc(-c3cccs3)c(NC(C)=O)s2)ccc1O | D(2) dopamine receptor (Homo sapiens) | 31.5
Cc1ccc(O)c(-c2cc(C(=O)Nc3c(C)n(C)n(-c4ccccc4)c3=O)[nH]n2)c1 | D(2) dopamine receptor (Homo sapiens) | 34.8
COC(=O)CN1C(=S)N(c2ccccc2)C(=O)C1CC(=O)Nc1ccc(Cl)cc1 (stereo unspecified) | D(2) dopamine receptor (Homo sapiens) | -0.464
N#C/C(=C/c1ccc(N2CCCCC2)o1)C(=O)NCCc1c[nH]c2ccccc12 | D(2) dopamine receptor (Homo sapiens) | 38.7
